# Tested on: A549/ATCC NSCLC
# Protocol: NCI-60 one-dose screen, 48 h (100 = growth as untreated, 0 = no growth, -100 = all killed)
# Measurement context: 10 µM unless noted
This is part of a sample that, as a whole, favours compounds with a hit. Of some 83,000 tested, about 20% had one in any assay.
Endpoint: growth (%)
Give the value, in units of %, as a plain number.

Worked cases, answers included:
{"columns": ["Molecular string", "Tested system", "Result number"],
 "data": [
  ["O=C(O)CCCCCCCCCCN1C(=O)/C(=C2/C(=O)N(CC(=O)O)c3ccc(Br)cc32)SC1=S", "A549/ATCC NSCLC", 92],
  ["COC(=O)c1sccc1-c1cc(O)c(C(=O)Nc2ccccc2)s1", "A549/ATCC NSCLC", 91.5]
]}

Quick one: growth for `CC(C)CCC[C@@H](C)[C@H]1CC[C@H]2[C@@H]3CC=C4c5sc(Nc6cc(C(F)(F)F)cc(C(F)(F)F)c6)nc5CC[C@]4(C)[C@H]3CC[C@]12C` ?
92.1
